target: Nav 1.7 (Homo sapiens (Human)); assay: Nav 1.7 in vitro PX assay (PatchXpress whole cell voltage clamp); assay type: cell-based; details: PatchXpress (PX);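 also: holding potential set for 20 to 50% inactivation, sodium current evoked by a 20 ms step to −10 mV, peak current inhibition read after compound exposure, 3–5 cells per concentration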
Sequence (Q15858 whole entry): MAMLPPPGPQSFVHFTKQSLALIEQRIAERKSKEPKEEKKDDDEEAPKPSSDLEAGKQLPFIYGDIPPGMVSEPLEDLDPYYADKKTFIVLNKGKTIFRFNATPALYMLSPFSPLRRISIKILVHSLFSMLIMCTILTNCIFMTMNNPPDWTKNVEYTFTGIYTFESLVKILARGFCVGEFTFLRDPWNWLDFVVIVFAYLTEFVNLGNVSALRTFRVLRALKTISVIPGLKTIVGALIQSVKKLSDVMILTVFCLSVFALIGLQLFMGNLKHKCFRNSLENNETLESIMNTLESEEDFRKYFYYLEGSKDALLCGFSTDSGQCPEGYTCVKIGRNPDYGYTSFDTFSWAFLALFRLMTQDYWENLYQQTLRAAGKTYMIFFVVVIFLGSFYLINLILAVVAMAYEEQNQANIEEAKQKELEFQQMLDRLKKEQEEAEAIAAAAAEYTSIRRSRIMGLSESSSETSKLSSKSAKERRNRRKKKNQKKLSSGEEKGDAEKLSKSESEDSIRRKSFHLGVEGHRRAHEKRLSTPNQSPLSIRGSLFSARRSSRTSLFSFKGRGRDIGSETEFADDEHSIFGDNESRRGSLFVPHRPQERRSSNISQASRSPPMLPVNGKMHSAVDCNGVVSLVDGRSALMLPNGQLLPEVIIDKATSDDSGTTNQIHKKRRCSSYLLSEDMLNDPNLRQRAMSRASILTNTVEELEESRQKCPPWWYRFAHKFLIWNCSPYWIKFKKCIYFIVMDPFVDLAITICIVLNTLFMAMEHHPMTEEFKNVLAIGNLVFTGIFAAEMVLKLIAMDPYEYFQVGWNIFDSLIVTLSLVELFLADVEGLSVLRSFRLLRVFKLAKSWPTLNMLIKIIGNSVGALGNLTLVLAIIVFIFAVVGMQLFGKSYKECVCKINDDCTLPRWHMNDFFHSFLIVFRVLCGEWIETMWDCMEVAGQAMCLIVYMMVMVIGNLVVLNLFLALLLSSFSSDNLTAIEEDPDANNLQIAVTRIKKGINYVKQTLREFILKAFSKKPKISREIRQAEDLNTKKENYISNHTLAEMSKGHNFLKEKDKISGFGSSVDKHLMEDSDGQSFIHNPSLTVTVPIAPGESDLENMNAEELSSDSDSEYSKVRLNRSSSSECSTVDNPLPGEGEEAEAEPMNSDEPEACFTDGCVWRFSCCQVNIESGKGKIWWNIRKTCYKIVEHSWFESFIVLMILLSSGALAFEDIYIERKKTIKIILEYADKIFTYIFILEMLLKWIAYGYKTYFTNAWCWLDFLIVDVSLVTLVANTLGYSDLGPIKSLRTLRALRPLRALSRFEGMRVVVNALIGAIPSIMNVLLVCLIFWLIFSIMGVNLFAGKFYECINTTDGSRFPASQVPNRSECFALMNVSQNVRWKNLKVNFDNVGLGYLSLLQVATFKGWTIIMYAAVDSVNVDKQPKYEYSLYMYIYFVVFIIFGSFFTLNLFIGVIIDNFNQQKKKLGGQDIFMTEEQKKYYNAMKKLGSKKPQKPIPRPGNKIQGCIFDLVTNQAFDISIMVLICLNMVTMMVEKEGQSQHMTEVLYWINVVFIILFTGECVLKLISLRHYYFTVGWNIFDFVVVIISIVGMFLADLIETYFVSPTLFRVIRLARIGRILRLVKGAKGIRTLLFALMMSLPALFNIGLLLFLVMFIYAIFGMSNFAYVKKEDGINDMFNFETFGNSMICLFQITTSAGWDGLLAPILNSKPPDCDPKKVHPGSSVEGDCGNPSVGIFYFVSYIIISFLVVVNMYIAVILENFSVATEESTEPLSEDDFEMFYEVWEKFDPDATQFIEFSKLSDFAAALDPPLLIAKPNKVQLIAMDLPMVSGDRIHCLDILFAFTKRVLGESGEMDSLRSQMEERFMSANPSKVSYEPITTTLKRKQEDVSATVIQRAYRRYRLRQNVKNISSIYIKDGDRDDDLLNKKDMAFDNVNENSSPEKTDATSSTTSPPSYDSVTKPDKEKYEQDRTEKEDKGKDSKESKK
measured_parameter: IC50 (nM)
Numbers only, in nM.

| input_smiles | recorded_number |
| --- | --- |
| COc1cc(-c2ccc(F)c(Cl)c2)c(C)cc1-c1ncnc2cc(S(=O)(=O)Nc3ccon3)ccc12 | 25.2 |
| COc1cc(-c2cccc(C(F)(F)F)c2)c(C)cc1-c1ncnc2cc(S(=O)(=O)Nc3ccon3)ccc12 | 18.4 |
| COc1cc(C(F)(F)F)c(Cl)cc1-c1nccc2cc(S(=O)(=O)Nc3ccon3)ccc12 | 224 |
| COc1cc(-c2cc(F)cc(F)c2)c(C)cc1-c1ncnc2cc(S(=O)(=O)Nc3ccon3)ccc12 | 50.4 |
| COc1cc(-c2cc(F)cc(Cl)c2)c(C)cc1-c1ncnc2cc(S(=O)(=O)Nc3ccon3)ccc12 | 29.9 |

The following compounds each have a reported value; give each one's IC50.
1. COc1cc(-c2cc(C)cc(F)c2)c(C)cc1-c1nccc2cc(S(=O)(=O)Nc3ccon3)ccc12
2. COc1cc(-c2cc(C)c(C)cc2C)c(C)cc1-c1nccc2cc(S(=O)(=O)Nc3ccon3)ccc12

1. 73.3
2. 242

====

Please provide measured pIC50 for the entries that follow.
target: UniProt:Q15858; assay: in-vitro Nav 1.7 PX data; type: cell-based; conditions: in-vitro PX data
Answers are plain numbers, as −log10 of the molar value.

Look over these answered cases.
| compound | pIC50 |
| --- | --- |
| COc1cc(-c2cc(C)cc(Cl)c2)c(C#N)cc1-c1nccc2cc(S(=O)(=O)Nc3ccon3)ccc12 [Example 114] | 7.54 |
| COc1cc(-c2cccc(C(F)(F)F)c2)c(F)cc1-c1ncnc2cc(S(=O)(=O)Nc3ccon3)ccc12 [Example 102] | 7.64 |
| COc1cc(Cl)c(-c2cccc(F)c2)cc1-c1nccc2cc(S(=O)(=O)Nc3nncs3)ccc12 [Example 110] | 6.96 |
| COc1cc(-c2cccc(F)c2)c(Cl)cc1-c1nncc2cc(S(=O)(=O)Nc3nncs3)ccc12 [Example 9] | 6.95 |

Hi! Can you tell me pIC50 for each of these compounds?
1. COc1cc(-c2cc(F)cc(F)c2)ccc1-c1nccc2cc(S(=O)(=O)Nc3ccno3)ccc12 [Example 128]
2. COc1cc(-c2cccc(C(F)(F)F)c2)c(C#N)cc1-c1nccc2cc(S(=O)(=O)Nc3ncon3)ccc12 [Example 118]

1. 5.45
2. 7.68

Any idea what its pIC50 is? The compound is COc1cc(-c2cccc(F)c2)c(Cl)cc1-c1nncc2cc(S(=O)(=O)Nc3ccon3)ccc12 [Example 10]
7.08

====

Assign pIC50 to each entry below.
biological target: Nav 1.7 (Homo sapiens (Human)); assay: in-vitro Nav 1.7 PX data; format: cell-based; settings: in-vitro PX (PatchXpress) data
Give bare numbers, as −log10 of the molar value.

| molecule | pIC50 |
| --- | --- |
| COc1cc(-c2cc(F)cnc2OC)ccc1-c1nccc2cc(S(=O)(=O)Nc3ccon3)ccc12 [Example 31] | 6.77 |
| COc1cc(-c2ccc(F)c(Cl)c2)c(Cl)cc1-c1ncnc2cc(S(=O)(=O)Nc3ccon3)ccc12 [Example 19] | 8.11 |
| COc1cc(-c2cc(F)cnc2OC)c(C#N)cc1-c1ncnc2cc(S(=O)(=O)Nc3ccon3)ccc12 [Example 201] | 6.37 |
| COc1cc(Oc2ccc(F)c(F)c2)ccc1-c1nccc2cc(S(=O)(=O)Nc3ccncn3)ccc12 [Example 175] | 6.71 |
| COc1cc(-c2ncnc3cc(S(=O)(=O)Nc4ccon4)ccc23)c(C)cc1-c1ccc(Cl)c(C)c1 [Example 34] | 5.58 |

Can you give me pIC50 for all of these, one by one?
1. COc1cc(Oc2ccc(C)c(F)c2)ccc1-c1nccc2cc(S(=O)(=O)Nc3ccncn3)ccc12 [Example 177]
2. COc1cc(Oc2ccc(F)cn2)ccc1-c1nccc2cc(S(=O)(=O)Nc3ccon3)ccc12 [Example 195]
3. COc1ccc(Oc2ccc(-c3nccc4cc(S(=O)(=O)Nc5ccncn5)ccc34)c(OC)c2)cc1 [Example 182]
4. COc1cc(-c2cccc(F)c2)c(Cl)cc1-c1ncnc2cc(S(=O)(=O)Nc3cccnn3)ccc12 [Example 15]

[7.00, 5.79, 6.52, 6.96]

I would be grateful if you could provide pIC50 for each of the following entries.
1. O=S(=O)(Nc1nncs1)c1ccc2c(-c3ccc(C(F)(F)F)cc3C3CC3)ncnc2c1 [Example 192]
2. COc1cc(-c2cccnc2OC(F)F)ccc1-c1nccc2cc(S(=O)(=O)Nc3nncs3)ccc12 [Example 193]
3. COc1cc(-c2ccc(F)c(F)c2)c(C#N)cc1-c1nccc2cc(S(=O)(=O)Nc3ccncn3)ccc12 [Example 197]
4. COc1cc(-c2cc(F)cc(F)c2)ccc1-c1ccnc2cc(S(=O)(=O)Nc3nncs3)ccc12 [Example 13]
5. COc1cc(-c2cc(F)cc(F)c2)c(C#N)cc1-c1ncnc2cc(S(=O)(=O)Nc3ccon3)ccc12 [Example 202]
6. COc1cc(Oc2cccc(C)c2)ccc1-c1nccc2cc(S(=O)(=O)Nc3ccncn3)ccc12 [Example 181]

1. 5.31
2. 6.06
3. 7.12
4. 6.34
5. 7.34
6. 6.90
